- measurementTarget: Protein Kinase C beta 2 (PKCβII) (Homo sapiens (Human), UniProt P05771)
- Sequence (P05771 other isoform, or with tags, fused parts or gaps): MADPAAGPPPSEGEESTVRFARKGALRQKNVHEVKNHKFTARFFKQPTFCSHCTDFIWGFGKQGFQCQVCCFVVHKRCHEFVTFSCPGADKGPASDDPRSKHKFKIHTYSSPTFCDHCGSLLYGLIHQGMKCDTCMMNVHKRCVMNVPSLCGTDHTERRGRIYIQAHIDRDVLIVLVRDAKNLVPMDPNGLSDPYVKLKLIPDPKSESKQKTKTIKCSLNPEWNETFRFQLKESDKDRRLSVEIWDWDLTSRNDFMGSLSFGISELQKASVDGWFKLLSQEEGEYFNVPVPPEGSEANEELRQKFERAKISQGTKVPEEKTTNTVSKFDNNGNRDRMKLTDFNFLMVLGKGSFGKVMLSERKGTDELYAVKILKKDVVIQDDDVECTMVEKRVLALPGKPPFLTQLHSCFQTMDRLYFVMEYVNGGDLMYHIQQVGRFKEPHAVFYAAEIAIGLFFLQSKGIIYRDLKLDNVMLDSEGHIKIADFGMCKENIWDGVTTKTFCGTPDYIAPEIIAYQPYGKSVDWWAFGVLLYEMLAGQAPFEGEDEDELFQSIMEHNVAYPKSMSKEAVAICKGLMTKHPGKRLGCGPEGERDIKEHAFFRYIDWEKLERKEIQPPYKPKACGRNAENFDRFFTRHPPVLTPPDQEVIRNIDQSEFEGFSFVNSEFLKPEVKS
- method: PKCβII coupled spectrophotometric kinase assay (PK/LDH, NADH absorbance at 340 nm)
- Format: biochemical
- measurementParameters: apparent Ki, ATP competitive inhibition model (Morrison equation); 0.1 mM ATP, 5 nM PKC, 30° C.; read-out: Ki app
Where a name gives a salt, the structure may show the parent alone.
Catalogue of pKi readings, one per entry.
Please report pKi as the negative decimal logarithm of the molar concentration, giving only the number.

{"compound": "CCN1C[C@H](C)N(C(=O)N2Cc3c(Nc4nc(OC)ncc4F)n[nH]c3C2(C)C)C[C@H]1C", "measurementTarget": "Protein Kinase C beta 2 (PKCβII) (Homo sapiens (Human), UniProt P05771)", "pKi": 7.64}

Input line: // map `CCOc1ncc(F)c(Nc2n[nH]c3c2CN(C(=O)N2C[C@@H](C)N(CCCOC)C[C@@H]2C)C3(C)C)n1` to recorded pKi (system: Protein Kinase C beta 2 (PKCβII) (Homo sapiens (Human), UniProt P05771))
Output line: 9.17

Input line: Try this compound next: `COCCCOc1ncc(F)c(Nc2n[nH]c3c2CN(C(=O)N2CC(C)(C)N(C)C[C@@H]2C)C3(C)C)n1`
Output line: 7.89

Input line: Try this compound next: `Cc1ncc(F)c(Nc2n[nH]c3c2CN(C(=O)N2C[C@@H](C)N(C)C[C@@H]2C)C3(C)C)n1`
Output line: 7.74

Input line: Try this compound next: CC(C)CNc1ncc(F)c(Nc2n[nH]c3c2CN(C(=O)N2CC(C)(C)N(C)C[C@@H]2C)C3(C)C)n1 [Example A4, acetate salt]
Output line: 7.42

Input line: Try this compound next: `CCNc1nccc(Nc2n[nH]c3c2CN(C(=O)N2CC(C)(C)N(C)C[C@@H]2C)C3(C)C)n1`
Output line: 8.47
